- STUDY_SYSTEM: T1, PUF4 RNA-binding domain (Saccharomyces cerevisiae, UniProt P25339 537-888)
- T1 sequence: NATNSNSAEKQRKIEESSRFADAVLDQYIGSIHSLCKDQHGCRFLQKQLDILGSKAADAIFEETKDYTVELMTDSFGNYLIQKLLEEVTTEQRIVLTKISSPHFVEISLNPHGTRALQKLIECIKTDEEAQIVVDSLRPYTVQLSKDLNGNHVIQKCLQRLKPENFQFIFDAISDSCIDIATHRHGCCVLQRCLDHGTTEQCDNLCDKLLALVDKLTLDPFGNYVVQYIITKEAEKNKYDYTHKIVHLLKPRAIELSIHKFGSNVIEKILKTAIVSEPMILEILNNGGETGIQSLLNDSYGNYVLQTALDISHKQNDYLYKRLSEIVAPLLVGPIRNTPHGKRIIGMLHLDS
- EXPERIMENTAL_DETAILS: Mg; RNA-MaP; 20 mM Na-HEPES pH 7.4, 30 mM KOAc, 0.75 mM MgCl2, 0.1% Tween-20, 5% glycerol, 0.1 mg/mL BSA, 2 mM DTT; 25 C; 0.0125-409.6 nM protein
- SETTINGS: tags: N-His6-TEV cleaved; C-SNAP kept, Cy3B-labelled; label: tethered on chip by stalled RNA polymerase
Quick list: Kd per entry.
// units = nM; emit number, no label

Example entries begin here.
Id_ii_S2_P5E.3_K5.2_C5.2_[C-2T]_[T-1C]_H5.2_A5.1_F5.1_T5.2_[T11A]_[A12T] (ssRNA) RNA: UUUGAUUAAUAUGAUAUCGUUCUUUCUUCUAUAUUAUUAAUUUCUUUCUCGAUAUCAUAUUAAUCUUU; 149
UCUCUUUUUAUAUUAUCUCUU (ssRNA) [Ia_S1_P4E.1_K4.1_C4.1_H4.1_[G2T]_A4.1_F4.1_T4.1]; 655
ACAAACGCUAUAUUAUUAACACAAAC (ssRNA) [Id_ii_S3_P5E.3_K5.2_C5.2_[C-2G]_[T-1C]_H5.2_A5.1_F5.1_T5.2_[T11A]_[A12C]]; 812
ACAAACUGUACUCUUAUUAACAAAC (ssRNA) [Ie_S3_P5E.1_K5.1_C5.1_H5.1_[+4CTC]_A5.1_F5.1_T5.1]; 7.73
UCUCUUUGUUUCAUUAUUAUCUCUU (ssRNA) [Ie_S1_P5E.1_K5.1_C5.1_H5.1_[+3TTC]_A5.1_F5.1_T5.1]; 22.2
UCUCUUUGUACCGAUUCUCUU (ssRNA) [Ic_S1_P4E.1_K4.1_C4.1_H4.1_A4.1_[T5C]_[A6C]_[T7G]_F4.1_[T8A]_[A9T]_T4.1]; 519
Id_ii_S4_P4E.3_K4.2_C4.2_[T-1C]_H4.2_A4.1_F4.1_T4.2_[G10A] (ssRNA) RNA: UUUGACAACUGAUCGUUCUUUCUCCUAUAUAUUAAUUUCUUUCUCGAUCAGUUGUCUUU; 4.86
Ic_S2_P4E.1_K4.1_C4.1_H4.1_A4.1_[T5G]_[A6C]_F4.1_[A9T]_T4.1 (ssRNA) RNA: UUUGAUUAAUAUGAUAUCGUUCUUUCUUGUAGCUUUUUCUUUCUCGAUAUCAUAUUAAUCUUU; 30.4

Prompt: Which Kd value is on record for UCUCUUAAAACACUAUAUAUCUCUU (ssRNA) [Id_i_S1_P3E.7_K3.3_C3.3_[T-3A]_[C-2A]_[T-1A]_H3.3_A3.1_F3.1_T3.2] ?
Response: 2250
